Taken from patent US8058475B2.

Reported pKi values follow for various compounds
SYSTEM: human μ-opiate receptor (Homo sapiens, UniProt P35372)
Sequence (P35372 whole entry): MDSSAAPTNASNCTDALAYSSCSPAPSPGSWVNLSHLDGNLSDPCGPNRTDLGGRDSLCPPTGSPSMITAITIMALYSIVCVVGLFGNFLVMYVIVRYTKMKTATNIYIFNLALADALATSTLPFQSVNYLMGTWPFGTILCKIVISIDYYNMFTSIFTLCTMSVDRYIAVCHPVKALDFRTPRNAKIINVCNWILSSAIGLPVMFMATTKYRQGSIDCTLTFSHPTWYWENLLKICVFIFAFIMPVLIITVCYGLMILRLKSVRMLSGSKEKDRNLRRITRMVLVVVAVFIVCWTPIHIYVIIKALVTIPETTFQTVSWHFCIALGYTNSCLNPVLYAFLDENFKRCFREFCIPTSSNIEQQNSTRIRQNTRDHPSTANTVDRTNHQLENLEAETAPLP
MEASUREMENT_NOTES: Affinity for the human μ-opiate receptor ([3H]-naloxone displacement, SPA, CHO-K1 membrane preparation)
Format: binding
PARTICULARS: read-out: μ-Opioid receptor, Ki
Counter-ions that a name gives are not always drawn.
# log scale: pKi equals minus log10 of the concentration in mol/L

Check out these entries, answers already filled in.
- COMPOUND: "CC(=O)N(c1ccccc1)C1CCC(C(c2ccccc2)N(C)C)CC1 (stereo not shown) [compound 96, hydrochloride]"
  READOUT_VALUE: 7.07
- COMPOUND: "CN(C)C(c1cccc(F)c1)C1CCC(NC(=O)Cc2ccccc2)CC1 (stereo not shown) [compound 240]"
  READOUT_VALUE: 7.29
- COMPOUND: "CN(C)C(c1ccc(F)cc1)C1CCC(CCNC(=O)c2cccc(Cl)c2)CC1 (single isomer, unassigned) [compound 422]"
  READOUT_VALUE: 7.46

Look up pKi: CN(C)C(c1ccccc1)C1CCC(CCNC(=O)c2cccnc2Sc2ccc(Cl)cc2)CC1 (single isomer, unassigned) [compound 471]
7.06
